B1: Azoarcus group I ribozyme (parent)
chain: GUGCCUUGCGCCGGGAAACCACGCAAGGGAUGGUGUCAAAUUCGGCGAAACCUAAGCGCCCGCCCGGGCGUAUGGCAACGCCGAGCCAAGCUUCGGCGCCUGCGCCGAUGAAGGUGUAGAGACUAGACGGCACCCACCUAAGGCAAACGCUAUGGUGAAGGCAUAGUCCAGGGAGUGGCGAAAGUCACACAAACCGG

variants of: B1; test: reverse-splicing fitness (ratio to wild type); higher = more active; in vitro selection; Mg2+ level not given
// no (0) strictly below 0.008 in reverse-splicing fitness; yes (1) otherwise

[ask] Hi, just wondering whether C82U A111U A120C C150U C169G U176C shows reverse-splicing fitness of 0.008 or higher.
[reply] yes (1)

[ask] Follow-up entry: A120G A145G C150U C169G U176A
[reply] yes (1)

[ask] Follow-up entry: A120U A145C C150G C169G
[reply] yes (1)

[ask] Follow-up entry: C82U A145U C169G U176C
[reply] yes (1)

[ask] Follow-up entry: C82G A120G A145C C150G C169U U176A
[reply] yes (1)

[ask] Follow-up entry: A111U C150G U176C
[reply] yes (1)

[ask] Follow-up entry: C82G A120C C150A C169A
[reply] yes (1)

[ask] Follow-up entry: C82U A111U A120C A145U C150G U176C
[reply] no (0)
